molecular target: T1, human TMEM106B (human, UniProt Q9NUM4 2-274); experiment: FACS HEK+huTMEM 0.1 ug/ml (2nd column so headed);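 further: flow cytometry binding of purified anti-TMEM106B mouse IgG to HEK293 cells transiently transfected with TMEM106B, read as median fluorescence intensity on live (propidium iodide-negative) cells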
T1 construct: full-length, transiently expressed on HEK293 cells, or natively expressed on HeLa, U251 and A549 cells (the cell is named under assay); also the source of the Pepscan peptides; also called huTMEM106B; huTMEM
Give measured MFI for each item. Keep answers brief.
Put down the number, then write its unit next to it.

What does the data say about its MFI? Entry: TM-35 (antibody, V domains shown) VH: QVQLQQSGPELVRPGTSVKISCKAPGYTFTRHWMQWVRQRPGQGLEWIGEILPGSNNIYYNEKVKGKATLTVDTSSSTSYMQLSSLTSEDSAVYFCARSLYDYDGVFAYWGQGTLVTVSA VL: DVLMTQIPLSLPVSLGDQASISCRSSQSIVHRNGNTYLEWYLQKPGQSPKLLIYKVSNRFSGVPDRFSGSGSGTDFTLKISRVEAEDLGVYYCFQGSHVPYTFGGGTKLEIK
4080 MFI

What does the data say about its MFI? Entry: TM-48 (antibody, V domains shown) VH: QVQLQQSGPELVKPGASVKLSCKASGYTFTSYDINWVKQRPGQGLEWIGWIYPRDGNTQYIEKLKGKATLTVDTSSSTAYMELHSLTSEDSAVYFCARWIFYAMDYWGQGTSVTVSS VL: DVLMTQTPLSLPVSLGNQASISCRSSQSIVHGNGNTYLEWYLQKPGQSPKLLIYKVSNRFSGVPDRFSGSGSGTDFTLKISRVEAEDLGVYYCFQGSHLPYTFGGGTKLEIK
4050 MFI
